This listing pairs compounds with measured IC50.
target or test system: JAK3/JAK1 (Homo sapiens, UniProt P23458+P52333)
Sequence (P52333 whole entry): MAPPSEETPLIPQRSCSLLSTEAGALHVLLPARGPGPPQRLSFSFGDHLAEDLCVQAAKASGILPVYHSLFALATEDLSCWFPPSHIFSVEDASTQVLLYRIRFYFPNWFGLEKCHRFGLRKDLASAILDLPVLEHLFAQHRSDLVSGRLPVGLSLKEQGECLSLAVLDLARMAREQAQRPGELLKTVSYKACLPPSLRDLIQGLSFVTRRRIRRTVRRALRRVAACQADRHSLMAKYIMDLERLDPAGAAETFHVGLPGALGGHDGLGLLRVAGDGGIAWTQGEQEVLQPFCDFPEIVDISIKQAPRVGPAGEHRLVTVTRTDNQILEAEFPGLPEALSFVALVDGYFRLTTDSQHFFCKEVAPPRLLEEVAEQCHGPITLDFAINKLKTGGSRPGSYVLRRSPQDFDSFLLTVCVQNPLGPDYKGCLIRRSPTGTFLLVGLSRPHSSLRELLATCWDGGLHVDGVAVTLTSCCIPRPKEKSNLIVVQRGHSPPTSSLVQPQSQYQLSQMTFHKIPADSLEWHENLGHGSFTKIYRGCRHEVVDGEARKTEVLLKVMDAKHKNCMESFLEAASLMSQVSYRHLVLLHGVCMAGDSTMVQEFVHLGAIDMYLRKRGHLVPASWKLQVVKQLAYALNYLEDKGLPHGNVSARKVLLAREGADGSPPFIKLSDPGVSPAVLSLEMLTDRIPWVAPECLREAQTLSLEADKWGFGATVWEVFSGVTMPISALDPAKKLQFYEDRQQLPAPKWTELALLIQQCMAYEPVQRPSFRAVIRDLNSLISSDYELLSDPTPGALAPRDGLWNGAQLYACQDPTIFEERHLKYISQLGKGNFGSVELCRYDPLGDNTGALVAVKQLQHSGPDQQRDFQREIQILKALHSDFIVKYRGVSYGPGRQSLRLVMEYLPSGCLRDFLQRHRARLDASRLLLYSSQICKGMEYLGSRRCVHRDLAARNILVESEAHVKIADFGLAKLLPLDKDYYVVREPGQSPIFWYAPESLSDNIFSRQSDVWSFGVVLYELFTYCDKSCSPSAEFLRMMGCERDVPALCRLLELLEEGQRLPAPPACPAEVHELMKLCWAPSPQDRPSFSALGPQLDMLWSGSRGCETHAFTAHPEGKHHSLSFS
Sequence (P23458 whole entry): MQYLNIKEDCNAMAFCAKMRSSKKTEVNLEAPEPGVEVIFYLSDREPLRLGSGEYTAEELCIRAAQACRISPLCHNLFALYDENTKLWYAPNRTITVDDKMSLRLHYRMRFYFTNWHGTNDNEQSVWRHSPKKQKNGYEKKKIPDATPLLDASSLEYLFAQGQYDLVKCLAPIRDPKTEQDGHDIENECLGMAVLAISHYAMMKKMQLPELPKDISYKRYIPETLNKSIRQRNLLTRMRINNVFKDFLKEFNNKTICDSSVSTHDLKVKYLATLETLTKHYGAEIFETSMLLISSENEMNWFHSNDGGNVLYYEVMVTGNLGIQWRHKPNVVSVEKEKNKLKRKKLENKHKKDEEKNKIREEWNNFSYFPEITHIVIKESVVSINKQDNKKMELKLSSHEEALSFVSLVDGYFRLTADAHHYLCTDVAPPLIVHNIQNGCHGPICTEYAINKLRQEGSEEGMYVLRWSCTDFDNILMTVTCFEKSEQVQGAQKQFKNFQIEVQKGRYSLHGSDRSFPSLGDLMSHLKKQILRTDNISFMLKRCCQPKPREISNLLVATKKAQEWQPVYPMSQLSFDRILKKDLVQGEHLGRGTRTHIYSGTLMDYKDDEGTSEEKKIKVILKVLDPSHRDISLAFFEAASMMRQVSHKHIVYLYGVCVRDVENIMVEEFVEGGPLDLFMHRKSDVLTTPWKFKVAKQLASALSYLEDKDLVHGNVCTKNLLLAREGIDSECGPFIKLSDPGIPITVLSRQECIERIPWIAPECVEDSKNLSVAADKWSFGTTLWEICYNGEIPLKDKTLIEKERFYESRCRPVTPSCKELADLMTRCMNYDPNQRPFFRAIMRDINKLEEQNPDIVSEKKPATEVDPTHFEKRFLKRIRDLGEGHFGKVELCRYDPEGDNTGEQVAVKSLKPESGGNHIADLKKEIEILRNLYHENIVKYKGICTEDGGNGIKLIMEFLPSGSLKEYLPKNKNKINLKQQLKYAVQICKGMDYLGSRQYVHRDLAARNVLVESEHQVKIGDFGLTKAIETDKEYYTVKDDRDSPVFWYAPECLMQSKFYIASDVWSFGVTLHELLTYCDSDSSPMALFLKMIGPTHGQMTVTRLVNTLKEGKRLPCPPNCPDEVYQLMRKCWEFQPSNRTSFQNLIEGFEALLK
assay name: Inhibition of JAK1/3-mediated STAT5 phosphorylation in human whole blood incubated for 30 mins followed by IL-2 addition measured after 15 mins by flow cytometry
Assay type: tissue-based

- cpd smiles: "COC[C@H](C)OC(=O)Cc1ccc(Nc2cc(Nc3ccccc3OC)c(C(N)=O)cn2)nc1"
  target or test system: "JAK3/JAK1 (Homo sapiens, UniProt P23458+P52333)"
  IC50: "> 50 µM"
- cpd smiles: "NC(=O)c1cnc(Nc2ccc(CC(=O)O)cn2)cc1Nc1ccccc1Cl"
  target or test system: "JAK3/JAK1 (Homo sapiens, UniProt P23458+P52333)"
  IC50: "> 50 µM"
- cpd smiles: "COc1ccccc1Nc1cc(Nc2ccc(CC(=O)O[C@@H]3CCOC3)cn2)ncc1C(N)=O"
  target or test system: "JAK3/JAK1 (Homo sapiens, UniProt P23458+P52333)"
  IC50: "> 50 µM"
- cpd smiles: "COCCOC(=O)Cc1ccc(Nc2cc(Nc3ccccc3OC)c(C(N)=O)cn2)nc1"
  target or test system: "JAK3/JAK1 (Homo sapiens, UniProt P23458+P52333)"
  IC50: "> 30 µM"
- cpd smiles: "COc1ccccc1Nc1cc(Nc2ccc(CC(=O)O)cn2)ncc1C(N)=O"
  target or test system: "JAK3/JAK1 (Homo sapiens, UniProt P23458+P52333)"
  IC50: "> 40 µM"

---

target or test system: Tyrosine-protein kinase JAK2 (Homo sapiens, UniProt O60674)
Sequence (O60674 whole entry): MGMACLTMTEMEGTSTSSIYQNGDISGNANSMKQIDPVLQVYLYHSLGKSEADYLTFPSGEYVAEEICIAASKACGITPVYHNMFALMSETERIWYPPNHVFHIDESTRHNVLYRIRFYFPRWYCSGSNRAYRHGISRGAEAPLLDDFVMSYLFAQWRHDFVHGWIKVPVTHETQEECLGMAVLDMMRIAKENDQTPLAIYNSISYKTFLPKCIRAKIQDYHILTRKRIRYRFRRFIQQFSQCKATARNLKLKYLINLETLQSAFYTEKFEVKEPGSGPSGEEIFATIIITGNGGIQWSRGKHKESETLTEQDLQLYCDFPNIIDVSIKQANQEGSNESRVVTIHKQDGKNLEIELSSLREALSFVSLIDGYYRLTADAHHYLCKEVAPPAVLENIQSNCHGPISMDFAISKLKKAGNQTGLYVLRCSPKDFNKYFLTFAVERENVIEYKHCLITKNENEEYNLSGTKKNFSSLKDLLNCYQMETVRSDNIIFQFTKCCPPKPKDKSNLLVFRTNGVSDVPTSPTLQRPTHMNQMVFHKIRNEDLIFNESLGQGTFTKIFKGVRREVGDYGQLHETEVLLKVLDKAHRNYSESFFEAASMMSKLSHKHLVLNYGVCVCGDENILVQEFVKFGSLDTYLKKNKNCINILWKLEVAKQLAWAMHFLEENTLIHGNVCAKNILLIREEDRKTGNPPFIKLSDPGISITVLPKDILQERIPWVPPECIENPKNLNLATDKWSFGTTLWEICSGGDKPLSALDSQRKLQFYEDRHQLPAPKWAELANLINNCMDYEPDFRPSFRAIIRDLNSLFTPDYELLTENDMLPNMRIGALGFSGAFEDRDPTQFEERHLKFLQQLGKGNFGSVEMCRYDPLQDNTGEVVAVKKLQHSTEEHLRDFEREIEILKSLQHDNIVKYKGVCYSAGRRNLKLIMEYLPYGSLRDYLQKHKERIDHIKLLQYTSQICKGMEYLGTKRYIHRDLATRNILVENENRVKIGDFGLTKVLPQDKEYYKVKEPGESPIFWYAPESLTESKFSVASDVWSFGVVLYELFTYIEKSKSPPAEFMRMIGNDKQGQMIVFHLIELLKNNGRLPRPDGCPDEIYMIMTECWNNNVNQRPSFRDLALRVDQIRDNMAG
pIC50: −log10 of the molar value.
This listing pairs molecules with measured pIC50.
metric: pIC50

- cpd smiles: "CCOC(=O)Cc1ccc(Nc2cc(Nc3ccccc3Cl)c(C(N)=O)cn2)nc1"
  metric: "pIC50"
  test value: 7.77
- cpd smiles: "COC(=O)Cc1ccc(Nc2cc(Nc3ccccc3Cl)c(C(N)=O)cn2)nc1"
  metric: "pIC50"
  test value: 8.00
- cpd smiles: "COCCOC(=O)Cc1ccc(Nc2cc(Nc3ccccc3OC)c(C(N)=O)cn2)nc1"
  metric: "pIC50"
  test value: 8.22

---

target or test system: JAK2/JAK1 (Homo sapiens, UniProt O60674+P23458)
Sequence (P23458 whole entry, one chain of several): as the sequence (P23458 whole entry) above
assay name: Inhibition of JAK1/2-mediated STAT1 phosphorylation in human M07E cells preincubated for 30 mins followed by IFN-alpha stimulation measured after 15 mins by flow cytometry
This listing pairs molecules with measured IC50.

- cpd smiles: "CCOC(=O)COc1ccc(Nc2cc(Nc3ccccc3Cl)c(C(N)=O)cn2)nc1"
  reading unit: "nM"
  cmp: "="
  IC50: 185
- cpd smiles: "COC[C@@H](C)OC(=O)Cc1ccc(Nc2cc(Nc3ccccc3OC)c(C(N)=O)cn2)nc1"
  reading unit: "nM"
  cmp: "="
  IC50: 45
- cpd smiles: "CC(C)OC(=O)Cc1ccc(Nc2cc(Nc3ccccc3Cl)c(C(N)=O)cn2)nc1"
  reading unit: "nM"
  cmp: "="
  IC50: 115
- cpd smiles: "CCOC(=O)Cc1ccc(Nc2cc(Nc3ccccc3Cl)c(C(N)=O)cn2)nc1"
  reading unit: "nM"
  cmp: "="
  IC50: 60
- cpd smiles: "CCOC(=O)CCc1ccc(Nc2cc(Nc3ccccc3Cl)c(C(N)=O)cn2)nc1"
  reading unit: "nM"
  cmp: "="
  IC50: 185
- cpd smiles: "COc1ccccc1Nc1cc(Nc2ccc(CC(=O)O)cn2)ncc1C(N)=O"
  reading unit: "nM"
  cmp: ">"
  IC50: 10000
- cpd smiles: "COC(=O)Cc1ccc(Nc2cc(Nc3ccccc3Cl)c(C(N)=O)cn2)nc1"
  reading unit: "nM"
  cmp: "="
  IC50: 37
